Reported half-life values follow for various molecules
ASSAY: Pharmacokinetic data in CD-1 mice after oral administration
Assay type: in vivo
CONDITION INFO: mouse, 10 mg/kg molar equivalent to Cmpd. A (nominal), serum, analyte: dosed derivative (DV)
Field: numeric (h). Do not append units.

Reported half-life ( CC(C)COC1(c2ccc(Cl)cc2)c2ccccc2C2=NCCN21 (stereo not shown) ) = 1.63

Reported half-life ( Clc1ccc(C2(OCc3ccc4c(c3)OCO4)c3ccccc3C3=NCCN32)cc1 (stereo not shown) ) = 1.42

* * *

ASSAY: Pharmacokinetic data in CD-1 mice after oral administration
Type: in vivo
CONDITION INFO: mouse, 10 mg/kg molar equivalent to Cmpd. A (nominal), serum, analyte: dosed derivative (DV)
Reported Cmax values follow for various compounds
Field: numeric (ng/mL). Do not append units.

Some compounds with known Cmax results, for comparison:
COMPOUND	Cmax (ng/mL)
COc1ccc(COC2(c3ccc(Cl)cc3)c3ccccc3C3=NCCN32)cc1 (stereo not shown)	234
CN1CCN(C(=O)N2CCN=C2c2ccccc2C(=O)c2ccc(Cl)cc2)CC1	752
CC(C)(C(=O)N1CCN=C1c1ccccc1C(=O)c1ccc(Cl)cc1)C(=O)N1CCN=C1c1ccccc1C(=O)c1ccc(Cl)cc1	238

Reported Cmax ( `COc1ccc(C(=O)N2CCN=C2c2ccccc2C(=O)c2ccc(Cl)cc2)cc1` ) = 170

* * *

Reported AUC(0-inf) values follow for various compounds
ASSAY: Pharmacokinetic data in CD-1 mice after oral administration
Assay type: in vivo
CONDITION INFO: mouse, 10 mg/kg molar equivalent to Cmpd. A (nominal), serum, analyte: dosed derivative (DV)
Field: numeric (ng·h/mL). Do not append units.

COMPOUND	MEASURED VALUE
C=CCOC1(c2ccc(Cl)cc2)c2ccccc2C2=NCCN21 (stereo not shown)	88.9

Reported AUC(0-inf) ( CC(C)=CCC/C(C)=C/COC1(c2ccc(Cl)cc2)c2ccccc2C2=NCCN21 (stereo not shown) ) = 44

Reported AUC(0-inf) ( CC(C)COC1(c2ccc(Cl)cc2)c2ccccc2C2=NCCN21 (stereo not shown) ) = 112

Reported AUC(0-inf) ( Clc1ccc(C2(OCc3ccc4c(c3)OCO4)c3ccccc3C3=NCCN32)cc1 (stereo not shown) ) = 358

Reported AUC(0-inf) ( COCCOC1(c2ccc(Cl)cc2)c2ccccc2C2=NCCN21 (stereo not shown) ) = 586

Reported AUC(0-inf) ( `CC(C)(C(=O)N1CCN=C1c1ccccc1C(=O)c1ccc(Cl)cc1)C(=O)N1CCN=C1c1ccccc1C(=O)c1ccc(Cl)cc1` ) = 369

Reported AUC(0-inf) ( `CN1CCN(C(=O)N2CCN=C2c2ccccc2C(=O)c2ccc(Cl)cc2)CC1` ) = 548

* * *

ASSAY: Pharmacokinetic data in CD-1 mice after oral administration
Assay type: in vivo
CONDITION INFO: mouse, 10 mg/kg molar equivalent to Cmpd. A (nominal), serum, analyte: dosed derivative (DV)
Reported AUC(0-inf) values follow for various compounds
Field: numeric (ng·h/mL). Do not append units.

Some compounds with known AUC(0-inf) results, for comparison:
COMPOUND	READOUT UNIT	MEASURED VALUE
Cc1ccc(C(=O)N2CCN=C2c2ccccc2C(=O)c2ccc(Cl)cc2)cc1 [II-3]	ng·h/mL	182
O=C(c1ccc(Cl)cc1)c1ccccc1C1=NCCN1C(=O)c1ccc2c(c1)OCO2 [II-4]	ng·h/mL	238
COC1(c2ccc(Cl)cc2)c2ccccc2C2=NCCN21 (stereo not drawn) [Compound I-6]	ng·h/mL	66.6
COc1ccc(COC2(c3ccc(Cl)cc3)c3ccccc3C3=NCCN32)cc1 (stereo not drawn) [Compound I-2]	ng·h/mL	268
CCOC1(c2ccc(Cl)cc2)c2ccccc2C2=NCCN21 (stereo not drawn) [Compound I-8]	ng·h/mL	72.4
Clc1ccc(C2(OCc3ccccc3)c3ccccc3C3=NCCN32)cc1 (stereo not drawn) [Compound I-1]	ng·h/mL	141
COc1ccc(C(=O)N2CCN=C2c2ccccc2C(=O)c2ccc(Cl)cc2)cc1 [II-2]	ng·h/mL	624
O=C(c1ccc(Cl)cc1)c1ccccc1C1=NCCN1C(=O)c1ccccc1 [II-1]	ng·h/mL	21.8

--- query ---
Reported AUC(0-inf) ( CC(C)=CCOC1(c2ccc(Cl)cc2)c2ccccc2C2=NCCN21 (stereo not drawn) [Compound I-9] ) = 59.8
